test: Gamma radiation (25-40 kGy) and 5-month storage stability of composition components in HDPE bottles; format: physicochemical; settings: HDPE bottle, T = 0, exposed to 25-40 kGy gamma radiation
endpointName: % LC, Exposed
For clarity, give the value followed by its unit.

Worked examples, 3 compounds total:
Write down % LC, Exposed measured for item COC(=O)c1ccc(O)cc1 [Methylparaben, methyl-para-hydroxybenzoate] 74.5 % LC

Write down % LC, Exposed measured for item O=C(O)CC(O)(CC(=O)O)C(=O)O [Citric Acid, citric acid] 97.4 % LC

Write down % LC, Exposed measured for item CCCOC(=O)c1ccc(O)cc1 [Propylparaben, propyl-para-hydroxybenzoate] 74.9 % LC

---
Write down % LC, Exposed measured for item CN(C)c1ccc2nc3ccc(=[N+](C)C)cc-3sc2c1 [Methylene Blue, methylene blue] 44.9 % LC
